system: human PKK mRNA; assay: Dose-dependent antisense inhibition of human PKK in HepaRG cells, 0.19-5.00 uM (Example 5); assay type: cell-based; details: 1.67 1μM, HepaRG cells, electroporation, approximately 16 hours; Table 41
Strand notation (5' to 3'): a small letter for the sugar, then the base; units joined by * are phosphorothioate-linked, units joined directly phosphodiester-linked; [ ] holds rarer units or linkages, { } end groups; capitals alone tell only the bases. e = 2'-O-(2-methoxyethyl) (MOE); [5mC] = 5-methylcytosine; d = 2'-deoxy (DNA)
measured_quantity: percent inhibition of PKK at 1.67 1μM (%)
Give bare numbers, in %.

Example cases with answers are listed next.
substance	unit_label	percent inhibition of PKK at 1.67 1μM
546827 (e[5mC]*eA*eG*eT*eA*dT*d[5mC]*dA*d[5mC]*dT*dG*dT*dA*d[5mC]*dT*eA*eG*eT*eT*eT; antisense) [compound 546827]	%	98
531231 (eT*eA*eT*e[5mC]*eA*d[5mC]*dT*dG*dT*dA*d[5mC]*dT*dA*dG*dT*eT*eT*e[5mC]*e[5mC]*eT) [compound 531231]	%	89
547602 (antisense eT*e[5mC]*eA*e[5mC]*eT*dG*dT*dA*d[5mC]*d[5mC]*dT*dA*dT*dA*dA*e[5mC]*eT*e[5mC]*eT*eA) [compound 547602]	%	52

Shifting focus to the substance that follows.
Q: # lookup: percent inhibition of PKK at 1.67 1μM of 546846 (e[5mC]*eT*eG*eT*e[5mC]*d[5mC]*dT*dA*dT*dA*dT*d[5mC]*dA*d[5mC]*dT*eG*eT*e[5mC]*e[5mC]*eT; antisense) [compound 546846]
A: 85

###

tested on: human PKK mRNA; experiment: Dose-dependent antisense inhibition of human PKK in HepaRG cells, 0.12-10.00 uM (Example 4); type: cell-based; settings: Table 32, 1.11 μM, electroporation, ~16 h
Strand notation (5' to 3'): a small letter for the sugar, then the base; units joined by * are phosphorothioate-linked, units joined directly phosphodiester-linked; [ ] holds rarer units or linkages, { } end groups; capitals alone tell only the bases. e = 2'-O-(2-methoxyethyl) (MOE); [5mC] = 5-methylcytosine; d = 2'-deoxy (DNA)
measured_quantity: percent inhibition of PKK at 1.11 μM (%)
Answers are plain numbers, in %.

Example cases with answers are listed next.
substance	percent inhibition of PKK at 1.11 μM (%)
531002 (eG*eA*eG*e[5mC]*eT*d[5mC]*d[5mC]*d[5mC]*dT*dT*dG*dT*dG*dT*d[5mC]*e[5mC]*e[5mC]*eA*eT*eA; antisense) [compound 531002]	58
531005 (e[5mC]*eT*e[5mC]*eA*eA*dA*dG*dA*dG*dT*dA*dA*d[5mC]*d[5mC]*dA*eG*eA*eG*e[5mC]*eT; antisense) [compound 531005]	61
531231 (eT*eA*eT*e[5mC]*eA*d[5mC]*dT*dG*dT*dA*d[5mC]*dT*dA*dG*dT*eT*eT*e[5mC]*e[5mC]*eT) [compound 531231]	76
530965 (antisense eG*eG*e[5mC]*eA*e[5mC]*dA*dG*dG*dG*d[5mC]*dT*dT*d[5mC]*dA*dG*eT*eG*eA*eG*eA) [compound 530965]	63
530971 (antisense eG*eG*eA*eA*e[5mC]*dT*dT*dG*dG*dT*dG*dT*dG*d[5mC]*d[5mC]*eA*e[5mC]*eT*eT*eT) [compound 530971]	52
531022 (eG*eT*eA*eA*eT*dG*dT*d[5mC]*dT*dG*dA*d[5mC]*dA*dG*dA*eT*eT*eT*eA*eA; antisense) [compound 531022]	32

For each of the items listed, what is its percent inhibition of PKK at 1.11 μM?
1. 530970 (antisense eT*eT*eG*eG*eT*dG*dT*dG*d[5mC]*d[5mC]*dA*d[5mC]*dT*dT*dT*e[5mC]*eA*eG*eA*eT) [compound 530970]
2. 531078 (eA*eG*e[5mC]*eA*eG*d[5mC]*dT*d[5mC]*dT*dG*dA*dG*dT*dG*d[5mC]*eA*e[5mC]*eT*eG*eT; antisense) [compound 531078]
3. 530967 (antisense e[5mC]*eA*eA*e[5mC]*e[5mC]*dA*dA*dT*dT*dT*d[5mC]*dT*dG*dA*dA*eA*eG*eG*eG*e[5mC]) [compound 530967]
4. 530988 (eT*e[5mC]*e[5mC]*eA*eA*dA*dG*dT*d[5mC]*dA*dA*d[5mC]*dT*d[5mC]*d[5mC]*e[5mC]*eG*eG*eG*eT; antisense) [compound 530988]
5. 531004 (eA*eG*eA*eG*eT*dA*dA*d[5mC]*d[5mC]*dA*dG*dA*dG*d[5mC]*dT*e[5mC]*e[5mC]*e[5mC]*eT*eT; antisense) [compound 531004]
6. 486847 (antisense eA*eG*eG*e[5mC]*eA*dT*dA*dT*dT*dG*dG*dT*dT*dT*dT*eT*eG*eG*eA*eA) [compound 486847]

A:
1. 66
2. 54
3. 48
4. 54
5. 25
6. 48
